Source of measurements: patent US20230081426A1

target: G12V-mutant human KRAS (amino acid residues 1-188) (Homo sapiens, UniProt P01116, G12V); construct: G12V-mutant human KRAS (amino acid residues 1-188) with FLAG tag was purified from E. coli; made in house; host or cells: E. coli; assay: KRAS Binding Competition Assay (AlphaScreen; biotinylated KRpep-2d analogue), G12V; conditions: geometric mean, read-out: KRAS GMean IC50 (uM) MUTATION: G12V
property: IC50

Task item: Report measured IC50; entry is `CN1CCC[C@H]1COc1nc(N2[C@@H]3CC[C@H]2CNC3)c2ccc(-c3cccc4ccccc34)cc2n1`
Reply: 10 to 100 µM

Task item: Report measured IC50; entry is `CCC(=O)N1[C@@H]2CC[C@H]1CN(c1nc(OCC34CCCN3CCC4)nc3cc(-c4cc(O)cc5ccccc45)ccc13)C2`
Reply: 0.0001 to 10 µM

Task item: Report measured IC50; entry is `C[C@H]1CCCN1CCc1nc(N2C[C@H]3CC[C@@H](C2)N3)c2ccc(-c3cc(O)cc4ccccc34)c(F)c2n1`
Reply: 10 to 100 µM

Task item: Report measured IC50; entry is `CN1CCC[C@H]1COc1nc(N2C[C@H]3CC[C@@H](C2)N3CC(=O)C2CCNCC2)c2ccc(-c3cc(O)cc4ccccc34)c(F)c2n1`
Reply: 10 to 100 µM

Task item: Report measured IC50; entry is `Cc1cccc2c(Nc3c(F)cc4c(N5C[C@H]6CC[C@@H](C5)N6)nc(OC[C@@H]5CCCN5C)nc4c3F)n[nH]c12`
Reply: 10 to 100 µM

Task item: Report measured IC50; entry is `CN1CCC[C@H]1COc1nc(N2[C@@H]3CC[C@H]2CN(c2cnccn2)C3)c2ccc(-c3cc(O)cc4ccccc34)cc2n1`
Reply: 10 to 100 µM

Task item: Report measured IC50; entry is CN1CCC[C@H]1COc1nc(N2C[C@H]3CC[C@@H](C2)N3C(=O)CC2SC(=O)NC2=O)c2cc(F)c(-c3cc(O)cc4ccccc34)c(F)c2n1 (stereo partly shown)
Reply: 0.0001 to 10 µM

---

Exercise: for every item that follows, state its recorded IC50.
target: G12D-mutant human KRAS (amino acid residues 1-188) (Homo sapiens, UniProt P01116, G12D); construct: G12D or G12C-mutant human KRAS (amino acid residues 1-188) with FLAG tag; made in house; host or cells: E. coli; experiment: KRAS Binding Disruption Assay (AlphaScreen; biotinylated KRpep-2d analogue or RAF1-RBD), G12D; conditions: KRAS G12D; geometric mean; read-out: KRAS GMean IC50 (uM) MUTATION: G12D

Task item: Report measured IC50; entry is CN1CCCC(Oc2nc(N3[C@@H]4CC[C@H]3CNC4)c3ccc(-c4cc(O)cc5ccccc45)cc3n2)C1 (some centres unmarked)
Reply: 0.0001 to 10 µM

Task item: Report measured IC50; entry is `O=C(CN1CCCS1(=O)=O)N1[C@@H]2CC[C@H]1CN(c1nc(OCC34CCCN3CCC4)nc3cc(-c4cc(O)cc5ccccc45)ccc13)C2`
Reply: 0.0001 to 10 µM

Task item: Report measured IC50; entry is `CCc1cc(F)cc2[nH]cc(-c3ccc4c(N5C[C@H]6CC[C@@H](C5)N6)nc(OCC56CCCN5CCC6)nc4c3F)c12`
Reply: 0.0001 to 10 µM

Task item: Report measured IC50; entry is `O=C(Cc1c[nH]cn1)N1[C@@H]2CC[C@H]1CN(c1nc(OCC34CCCN3CCC4)nc3c(F)c(-c4cc(O)cc5ccccc45)ccc13)C2`
Reply: 0.0001 to 10 µM

Task item: Report measured IC50; entry is `CN1CCC[C@H]1COc1nc(N2C[C@H]3CC[C@@H](C2)N3)c2ccc(-c3ccc(Cl)c(N)c3)cc2n1`
Reply: 10 to 100 µM

Task item: Report measured IC50; entry is `CN1C2CCC1(COc1nc(N3C[C@H]4CC[C@@H](C3)N4)c3ccc(-c4cc(O)cc5ccccc45)cc3n1)CC2`
Reply: 0.0001 to 10 µM

Task item: Report measured IC50; entry is Oc1cc(-c2ccc3c(N4C[C@H]5CC[C@@H](C4)N5)nc(N4CCC5(CCOC5)C4)nc3c2F)c2ccccc2c1 (some centres unmarked)
Reply: 0.0001 to 10 µM

Task item: Report measured IC50; entry is `CN(C)C(=O)COc1nc(N2C[C@H]3CC[C@@H](C2)N3)c2ccc(-c3cc(O)cc4ccccc34)cc2n1`
Reply: 10 to 100 µM

Task item: Report measured IC50; entry is `Cc1n[nH]c2cc(-c3ccc4c(N5C[C@H]6CC[C@@H](C5)N6)nc(OC[C@@H]5CCCN5C)nc4c3)ccc12`
Reply: 100 to 1000 µM

Task item: Report measured IC50; entry is CN1CCC[C@H]1COc1nc(N2C[C@H]3CC[C@@H](C2)N3C(=O)CC2SC(N)=NC2=O)c2ccc(-c3cc(O)cc4ccccc34)cc2n1 (some centres unmarked)
Reply: 0.0001 to 10 µM

Task item: Report measured IC50; entry is `CCN1CCC[C@H]1COc1nc(N2C[C@H]3CC[C@@H](C2)N3)c2ccc(-c3cc(O)cc4ccccc34)c(F)c2n1`
Reply: 0.0001 to 10 µM

Task item: Report measured IC50; entry is `CN1CCC[C@H]1COc1nc(N2[C@@H]3CC[C@H]2CN(C(=O)CC(N)=O)C3)c2ccc(-c3cc(O)cc4ccccc34)cc2n1`
Reply: 10 to 100 µM

Task item: Report measured IC50; entry is `CN1CCC[C@H]1COc1nc(N2C[C@H]3CC[C@@H](C2)N3)c2ccc(-c3cc(O)cc4ccccc34)c(F)c2n1`
Reply: 0.0001 to 10 µM

Task item: Report measured IC50; entry is `COc1ccc2[nH]cc(-c3ccc4c(N5C[C@H]6CC[C@@H](C5)N6)nc(OC[C@@H]5CCCN5C)nc4c3F)c2c1`
Reply: 10 to 100 µM

---

molecular target: G12V-mutant human KRAS (amino acid residues 1-188) (Homo sapiens, UniProt P01116, G12V); construct: G12V-mutant human KRAS (amino acid residues 1-188) with FLAG tag was purified from E. coli; made in house; host or cells: E. coli; test: KRAS Binding Competition Assay (AlphaScreen; biotinylated KRpep-2d analogue), G12V; conditions: geometric mean, read-out: KRAS GMean IC50 (uM) MUTATION: G12V
Exercise: for every item that follows, state its recorded IC50.

Task item: Report measured IC50; entry is `Fc1cc2c(N3C[C@H]4CC[C@@H](C3)N4)nc(OCC34CCCN3CCC4)nc2c(F)c1-c1c[nH]c2ccccc12`
Reply: 10 to 100 µM

Task item: Report measured IC50; entry is `Cc1cccc(N)c1-c1ccc2c(N3[C@@H]4CC[C@H]3CNC4)nc(OC[C@@H]3CCCN3C)nc2c1`
Reply: 10 to 100 µM

Task item: Report measured IC50; entry is O=C(NCC1CCNC1)N1[C@@H]2CC[C@H]1CN(c1nc(OCC34CCCN3CCC4)nc3cc(-c4cc(O)cc5ccccc45)ccc13)C2 (stereo partly shown)
Reply: 0.0001 to 10 µM

Task item: Report measured IC50; entry is Cc1cccc2c1N(c1ncc3c(N4C[C@H]5CC[C@@H](C4)N5)nc(OCC45CCCN4CCC5)nc3c1F)CC(O)C2 (stereo partly shown)
Reply: 100 to 1000 µM

Task item: Report measured IC50; entry is `COCCS(=O)(=O)N1[C@@H]2CC[C@H]1CN(c1nc(OCC34CCCN3CCC4)nc3cc(-c4cc(O)cc5ccccc45)ccc13)C2`
Reply: 10 to 100 µM

Task item: Report measured IC50; entry is `O=S(=O)(N[C@@H]1CCNC1)N1[C@@H]2CC[C@H]1CN(c1nc(OCC34CCCN3CCC4)nc3c(F)c(-c4cc(O)cc5ccccc45)ccc13)C2`
Reply: 0.0001 to 10 µM

Task item: Report measured IC50; entry is `O=C([C@@H]1CCNC1)N1[C@@H]2CC[C@H]1CN(c1nc(OCC34CCCN3CCC4)nc3cc(-c4cc(O)cc5ccccc45)ccc13)C2`
Reply: 0.0001 to 10 µM

Task item: Report measured IC50; entry is `CN1CCC[C@H]1COc1nc(N2C[C@H]3CC[C@@H](C2)N3)c2ccc(-c3c(O)ccc4ccccc34)cc2n1`
Reply: 10 to 100 µM

Task item: Report measured IC50; entry is `CN(C)c1ccc(CCc2nc(N3C[C@H]4CC[C@@H](C3)N4)c3cc(Cl)c(-c4c(O)cccc4F)c(F)c3n2)cc1`
Reply: 0.0001 to 10 µM

Task item: Report measured IC50; entry is `Cc1c(-c2c(F)cc3c(N4C[C@H]5CC[C@@H](C4)N5)nc(OC[C@@H]4CCCN4C)nc3c2F)cccc1C(F)(F)F`
Reply: 10 to 100 µM

Task item: Report measured IC50; entry is `CN1CCC[C@H]1COc1nc(N2C[C@H]3CC[C@@H](C2)N3C(=O)CC#N)c2cc(F)c(-c3cc(O)cc4ccccc34)c(F)c2n1`
Reply: 0.0001 to 10 µM

Task item: Report measured IC50; entry is CN1CCC[C@H]1COc1nc(N2[C@@H]3CC[C@H]2CN(C(=O)CCC2CCCNC2)C3)c2ccc(-c3cc(O)cc4ccccc34)cc2n1 (stereo partly shown)
Reply: 10 to 100 µM

Task item: Report measured IC50; entry is CN1C(=O)C(CC(=O)N2[C@@H]3CC[C@H]2CN(c2nc(OCC45CCCN4CCC5)nc4c(F)c(-c5cc(O)cc6ccccc56)ccc24)C3)N(C)C1=O (stereo partly shown)
Reply: 0.0001 to 10 µM
